Biological target: ICAM-1 binding to immobilized Mac-1 (Homo sapiens, UniProt P05107+P11215)
Construct: made in house; host or cells: transfected 293 cells (Mac-1)
Sequence (P05107 23-769, other chains not shown): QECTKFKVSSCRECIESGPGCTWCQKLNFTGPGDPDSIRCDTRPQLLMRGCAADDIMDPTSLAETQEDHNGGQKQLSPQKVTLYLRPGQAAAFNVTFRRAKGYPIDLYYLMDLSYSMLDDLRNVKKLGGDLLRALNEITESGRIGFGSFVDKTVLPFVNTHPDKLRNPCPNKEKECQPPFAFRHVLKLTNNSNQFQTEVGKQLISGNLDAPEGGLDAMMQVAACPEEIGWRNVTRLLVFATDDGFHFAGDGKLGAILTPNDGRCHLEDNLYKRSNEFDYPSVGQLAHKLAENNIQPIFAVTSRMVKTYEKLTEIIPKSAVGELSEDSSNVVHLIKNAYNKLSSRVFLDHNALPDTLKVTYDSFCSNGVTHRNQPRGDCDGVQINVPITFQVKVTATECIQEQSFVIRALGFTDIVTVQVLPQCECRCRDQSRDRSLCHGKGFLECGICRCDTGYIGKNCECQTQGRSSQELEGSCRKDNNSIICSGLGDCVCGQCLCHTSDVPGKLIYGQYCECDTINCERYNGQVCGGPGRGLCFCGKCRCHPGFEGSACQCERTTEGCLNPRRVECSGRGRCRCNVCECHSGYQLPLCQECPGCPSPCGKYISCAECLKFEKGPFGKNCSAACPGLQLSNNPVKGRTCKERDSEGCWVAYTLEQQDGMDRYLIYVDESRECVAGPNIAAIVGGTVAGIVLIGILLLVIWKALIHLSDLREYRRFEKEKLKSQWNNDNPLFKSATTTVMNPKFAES
Assay: Mac-1/ICAM-1 screening assay (solid-phase ELISA)
Conditions: read-out: Mac-1/ICAM-1 Protein-Protein Assay IC50
The molecules listed here are annotated with their pIC50.
Note on units: pIC50 is unitless, being -log10 of a concentration expressed in mol/L.

As a guide, the following entries are already answered.
> print(dat)
                                   molecule  quantity.name  result.value
1  N[C@@H](Cc1c[nH]c2ccccc12)C(=O)NC[C@H](NC(=O)c1ccc(C(=O)NCc2cccc(O)c2)cc1Cl)C(=O)O [Example 201]          pIC50          7.31
2  O=C(NC[C@H](NC(=O)c1ccc(-n2nnnc2NCc2cccc(O)c2)cc1Cl)C(=O)O)c1cccs1 [Example 321]          pIC50          7.12

# input for lookup
Could you share which pIC50 value was measured for O=C(NCc1cccc(O)c1)c1ccc(C(=O)N[C@@H](CNC(=O)c2cccnc2)C(=O)O)c(Cl)c1 [Example 165] ?
7.41

----------
Test system: Mac-1 and LFA-1-mediated neutrophil binding to immobilized ICAM-1
Experiment: Neutrophil (Mac-1 and LFA-1)/ICAM-1 cell-based screening assay
Settings: human neutrophils
quantity-name: pIC50
pIC50 here: minus log base 10 of the concentration, concentration in moles per litre.

> print(dat)
                                   molecule  quantity.name  result.value
1  Cc1cc(C(=O)N[C@H](C)c2cccc3ccccc23)cc(C)c1C(=O)N[C@@H](CNC(=O)c1cccs1)C(=O)O [Example 333]          pIC50          7.85
2  O=C(NCc1cccc(O)c1)c1ccc(C(=O)N[C@@H](CNC(=O)c2cccs2)C(=O)O)c(Cl)c1 [Example 303]          pIC50          7.80
3  Cc1cc(C(=O)NCc2cccc(O)c2)cc(C)c1C(=O)N[C@@H](CNC(=O)c1cccs1)C(=O)O [Example 330]          pIC50          8.17

// lookup pIC50 for C[C@@H](NC(=O)c1cc(Cl)c(C(=O)N[C@@H](CNC(=O)c2ccccc2)C(=O)O)c(Cl)c1)c1cccc2ccccc12 [Example 347]
7.79

Repeat with Cc1cc(C(=O)NCc2cccc(O)c2)cc(C)c1C(=O)N[C@@H](CNC(=O)c1ccsc1)C(=O)O [Example 336]
8.21

----------
Target: ICAM-1 binding to immobilized Mac-1 (Homo sapiens, UniProt P05107+P11215)
Construct: made in house; host or cells: transfected 293 cells (Mac-1)
Test: Mac-1/ICAM-1 screening assay (solid-phase ELISA)
Conditions: read-out: Mac-1/ICAM-1 Protein-Protein Assay IC50
We label by threshold. Values of IC50 strictly beneath 60 nM are YES. Values of 60 nM and up are NO.

Consider the following illustrative entries.
> print(dat)
                               record.smiles  qualitative.label
 1  O=C(C[n+]1csc2ccccc21)NC[C@H](NC(=O)c1ccc(C(=O)NCc2cccc(O)c2)cc1Cl)C(=O)O                 NO
 2  Cc1ccc(C(=O)NC[C@H](NC(=O)c2ccc(C(=O)NCc3cccc(O)c3)cc2Cl)C(=O)O)s1                YES
 3  COc1ccc(CC(=O)NC[C@H](NC(=O)c2ccc(C(=O)NCc3cccc(O)c3)cc2Cl)C(=O)O)cc1                 NO
 4  O=C(NCc1cccc(O)c1)c1ccc(C(=O)N[C@@H](CNC(=O)c2ccc(Cl)s2)C(=O)O)c(Cl)c1                YES
 5  O=C(NCc1cccc(O)c1)c1ccc(C(=O)N[C@@H](CNC(=O)c2ccc([N+](=O)[O-])cc2)C(=O)O)c(Cl)c1                YES
 6  O=C(CSc1ccncc1)NC[C@H](NC(=O)c1ccc(C(=O)NCc2cccc(O)c2)cc1Cl)C(=O)O                YES
 7  O=C(NCc1cccc(O)c1)c1ccc(C(=O)N[C@@H](CNC(=O)c2ccc(Br)s2)C(=O)O)c(Cl)c1                YES
 8  O=C(NCc1cccc2[nH]ccc12)c1ccc(C(=O)N[C@@H](CNC(=O)c2cccs2)C(=O)O)c(Br)c1                YES
 9  O=C(O)CCCC(=O)NC[C@H](NC(=O)c1ccc(C(=O)NCc2cccc(O)c2)cc1Cl)C(=O)O                 NO
10  O=C(NCc1cccc(O)c1)c1ccc(C(=O)N[C@@H](CNC(=O)c2nccc3ccccc23)C(=O)O)c(Cl)c1                YES

I'd appreciate it if you could check whether COc1ccc(C(=O)NC[C@H](NC(=O)c2ccc(C(=O)NCc3cccc(O)c3)cc2Cl)C(=O)O)c(OC)n1 has IC50 smaller than 60 nM.
NO

Repeat for the following molecule: O=C(NCc1cccc(O)c1)c1ccc(C(=O)N[C@@H](CNC(=O)c2csnn2)C(=O)O)c(Cl)c1
YES

Another: Cc1noc(C)c1C(=O)NC[C@H](NC(=O)c1ccc(C(=O)NCc2cccc(O)c2)cc1Cl)C(=O)O
NO

What do you get for O=C(NCc1cccc(O)c1)c1ccc(C(=O)N[C@@H](CNC(=O)c2nccnc2C(=O)Nc2ccc(Cl)cn2)C(=O)O)c(Cl)c1 ?
NO

# repeat for COc1c(C(=O)NC[C@H](NC(=O)c2ccc(C(=O)NCc3cccc(O)c3)cc2Cl)C(=O)O)csc1Cl
YES
